Observed IC50 values for Cytochrome P450 2C19 (Homo sapiens) are listed in what follows.
measurement-label: IC50 (µM)

1. O=C(c1ccccc1Cl)N1CCC(Cc2ccccc2)CC1
0.2
2. COc1ccc(Cc2nccc3cc(OC)c(OC)cc23)cc1OC
0.762
3. CO[C@H]1C[C@@H]2CC[C@@H](C)[C@@](O)(O2)C(=O)C(=O)N2CCCC[C@H]2C(=O)O[C@H]([C@H](C)C[C@@H]2CC[C@@H](O)[C@H](OC)C2)CC(=O)[C@H](C)/C=C(\C)[C@@H](O)[C@@H](OC)C(=O)[C@H](C)C[C@H](C)/C=C/C=C/C=C/1C
4
4. CC[C@]1(O)CC[C@H]2[C@@H]3CCC4=CCCC[C@@H]4[C@H]3CC[C@@]21C
1.29
5. C=C(C)[C@H]1Cc2c(ccc3c2O[C@@H]2COc4cc(OC)c(OC)cc4[C@@H]2C3=O)O1
3.65
